test system: Hepatitis C virus; assay: Antiviral activity against HCV1b assessed as inhibition of viral replication; format: functional, organism-based, Hepacivirus hominis; settings: genotype 1b
readoutName: pEC50
Scale for pEC50: -log10 of concentration given in mol/L; no unit attached.

>>> df
                                 testsmiles  experimentaltarget  recordedmeasurement
0  O=C(O)c1c(-c2ccc[nH]c2=O)c2c3occc3c(F)cc2n1Cc1cc2[nH]cnc2cc1F   Hepatitis C virus                 8.15

What measured pEC50 goes with `Cc1cc2[nH]ncc2cc1Cn1c(C(=O)OCCN(C)C)c(-c2ccc[nH]c2=O)c2c3occc3c(F)cc21.O=C(O)C(F)(F)F` ?
8.70

Moving on to the next compound: `O=C(O)c1c(-c2ccc[nH]c2=O)c2c3occc3c(F)cc2n1Cc1cc2cn[nH]c2cc1Cl`
8.30
